biological target: human glucagon receptor (human, UniProt P47871 26-477); test: cell-based or functional assay
Sequence (P47871 26-477): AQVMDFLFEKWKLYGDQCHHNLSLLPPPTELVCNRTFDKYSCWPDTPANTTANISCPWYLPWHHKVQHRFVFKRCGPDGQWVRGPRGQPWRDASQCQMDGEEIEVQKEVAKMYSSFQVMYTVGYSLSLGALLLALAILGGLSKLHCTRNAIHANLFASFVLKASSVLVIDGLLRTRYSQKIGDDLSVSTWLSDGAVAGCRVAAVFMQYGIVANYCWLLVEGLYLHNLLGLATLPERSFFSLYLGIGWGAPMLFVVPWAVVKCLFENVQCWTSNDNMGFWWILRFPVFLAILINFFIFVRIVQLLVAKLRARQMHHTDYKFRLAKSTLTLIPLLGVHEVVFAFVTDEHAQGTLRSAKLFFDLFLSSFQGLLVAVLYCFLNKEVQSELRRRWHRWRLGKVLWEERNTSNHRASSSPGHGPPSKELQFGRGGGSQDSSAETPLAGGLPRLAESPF
Where no end group is shown, it is not given here. [ ]: non-standard residue; d: D form. The star is where a group is joined. DOTA = O=C(O)CN1CCN(CC(=O)O)CCN(CC(=O)*)CCN(CC(=O)O)CC1; Aib = CC(C)(N)C(=O)O
measured.quantity: EC50 hGCGR, cAMP formation (HTRF), 96-well format

binder	result
YAEGTFISDYSIAMDKIHQQDFVNWLLAQKGKKNDWKHNITQ-OH (ligand) [GIP (glucose-dependent insulinotropic polypeptide), SEQ ID NO: 1]	> 10 nM
YAEGTFISDYSIAMDKIHQQDFVNWLLAQK-NH2 (ligand) [GIP(1-30) amide, SEQ ID NO: 2]	> 10 nM
Y[Aib]EGTFISDLSIALDRIHQEEFIEWLLAGGK(DOTA)-NH2 [SEQ ID NO: 3 (GIP(1-30) analog with K(DOTA) at position 31, unloaded)]	> 10 nM
H-Y[Aib]EGTFISDLSIALDRIHQEEFIEWLLAGGK(DOTA)-NH2 (also: Ga3+ complexed in DOTA on Lys31, also called Ga-S02-GIP-T4) [SEQ ID NO: 4 (GIP(1-30) analog with K(DOTA(Ga)) at position 31)]	> 10 nM
